system: 439559-082-T-J2-PDC spheroids viability; test: Anticancer human tumor 439559-082-T-J2-PDC patient-derived colon adenocarcinoma cell line growth inhibition [GQUAD]; conditions: second compound 10 µM; first compound 10 µM; active = viability on the fitted dose curve at most 10% of control; inactive = the rest;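 also: spheroids exposed to the agents for 7 days before readout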
Outcomes: active, inactive

molecule: Cc1cccc(N(C)C(=O)C2C(O)CCN2c2nc(C)cc(C(F)(F)F)c2C#N)c1 (stereo not given) + Cc1cnc(CNC(=O)c2c(=O)c3ccc(N4CCCN(C)CC4)nc3n3c2sc2ccccc23)cn1
categoryLabel: inactive

molecule: CCCS(=O)(=O)Nc1ccc(F)c(C(=O)c2c[nH]c3ncc(-c4ccc(Cl)cc4)cc23)c1F + Cc1[nH]c2ccc(F)cc2c1-c1nc2c3cccnc3c3ncccc3c2[nH]1
categoryLabel: inactive

molecule: CC(C)n1c(=O)n(C)c2cnc3cc(F)c(-c4ccc(OCCCN5CCCCC5)nc4)cc3c21 + CN(C)c1ccc(Nc2c3ccc(NC(=O)CCN4CCCC4)cc3nc3cc(NC(=O)CCN4CCCC4)ccc23)cc1
categoryLabel: inactive

molecule: CCCS(=O)(=O)Nc1ccc(F)c(C(=O)c2c[nH]c3ncc(-c4ccc(Cl)cc4)cc23)c1F + Cc1cnc(CNC(=O)c2c(=O)c3ccc(N4CCCN(C)CC4)nc3n3c2sc2ccccc23)cn1
categoryLabel: active

molecule: O=C(NO)c1cnc(N2CCN(S(=O)(=O)c3ccc4ccccc4c3)CC2)nc1 + CN(C)c1ccc(Nc2c3ccc(NC(=O)CCN4CCCC4)cc3nc3cc(NC(=O)CCN4CCCC4)ccc23)cc1
categoryLabel: active
